Listed below: Emax values for each entry.
# test system: UniProt:P04150
# Sequence (P04150 1-777): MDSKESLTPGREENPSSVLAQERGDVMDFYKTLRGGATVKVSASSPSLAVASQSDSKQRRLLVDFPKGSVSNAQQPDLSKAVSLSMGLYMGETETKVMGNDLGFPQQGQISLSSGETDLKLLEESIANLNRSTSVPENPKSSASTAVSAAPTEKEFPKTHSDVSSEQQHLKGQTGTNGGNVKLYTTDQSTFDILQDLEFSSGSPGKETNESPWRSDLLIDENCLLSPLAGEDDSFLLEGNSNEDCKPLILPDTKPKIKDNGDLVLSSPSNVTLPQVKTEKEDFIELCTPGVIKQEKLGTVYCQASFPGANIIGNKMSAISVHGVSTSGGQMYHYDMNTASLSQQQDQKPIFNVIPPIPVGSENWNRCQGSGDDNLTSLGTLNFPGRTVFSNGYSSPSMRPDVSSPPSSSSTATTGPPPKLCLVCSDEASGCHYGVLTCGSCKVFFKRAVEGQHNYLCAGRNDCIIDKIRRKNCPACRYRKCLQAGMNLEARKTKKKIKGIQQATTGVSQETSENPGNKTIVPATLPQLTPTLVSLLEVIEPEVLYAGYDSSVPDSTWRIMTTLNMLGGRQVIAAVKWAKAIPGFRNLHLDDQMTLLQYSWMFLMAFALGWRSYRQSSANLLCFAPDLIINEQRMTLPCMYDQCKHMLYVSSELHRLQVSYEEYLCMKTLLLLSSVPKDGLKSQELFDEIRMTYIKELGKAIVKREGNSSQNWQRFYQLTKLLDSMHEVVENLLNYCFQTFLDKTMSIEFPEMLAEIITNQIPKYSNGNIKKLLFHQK
# test description: Transrepression Assay (GITAR), TNFα-β-lactamase reporter in U937 cells
# Assay type: cell-based
# Design: U937 cells contain an endogenous glucocorticoid receptor (GR); endogenous in cells; host or cells: U937 cells stably transfected with the TNF-alpha promoter/beta-lactamase reporter
# condition label: U-937, U937 cells; maximum activity; read-out: Transrepression U937 Cells GITAR Emax
# output: bare number, implied unit %

INSERT INTO measurements (compound, reported_property, quantitative_result) VALUES
  ('C[C@]12Cc3cnn(-c4ccc(F)cc4)c3C=C1CC[C@@H]2CN(CC(O)C(F)(F)F)S(=O)(=O)Cc1ccccc1C(=O)O (some centres unmarked) [Example 164]', 'Emax', 81.3),
  ('COC(=O)c1sccc1S(=O)(=O)N(CC#N)C[C@H]1CCC2=Cc3c(cnn3-c3ccc(F)cc3)C[C@@]21C [Example 34]', 'Emax', 45.9),
  ('Cc1noc(C)c1S(=O)(=O)N(CC1CC1)C[C@H]1CCC2=Cc3c(cnn3-c3ccc(F)cc3)C[C@@]21C [Example 11]', 'Emax', 89.1),
  ('C[C@]12Cc3cnn(-c4ccc(F)cc4)c3C=C1CC[C@@H]2CN(CC(O)C(F)(F)F)S(=O)(=O)Cc1cccnc1 (some centres unmarked) [Example 149]', 'Emax', 77.1),
  ('C[C@]12Cc3cnn(-c4ccc(F)cc4)c3C=C1CC[C@@H]2CN(CCO)S(=O)(=O)c1ccc(F)c(Cl)c1 [Example 19]', 'Emax', 69.8),
  ('C[C@]12Cc3cnn(-c4ccc(F)cc4)c3C=C1CC[C@@H]2CN(CC1CC1)S(=O)(=O)Cc1ccccc1 [Example 21]', 'Emax', 58.7),
  ('Cn1cnc(S(=O)(=O)N(CC#N)C[C@H]2CCC3=Cc4c(cnn4-c4ccc(F)cc4)C[C@@]32C)c1 [Example 37]', 'Emax', 33.8),
  ('COC(=O)c1ccccc1S(=O)(=O)N(CC1CC1)C[C@H]1CCC2=Cc3c(cnn3-c3ccc(F)cc3)C[C@@]21C [Example 18]', 'Emax', 35.3),
  ('CNC(=O)Nc1ccc(S(=O)(=O)N(CC2CC2)C[C@H]2CCC3=Cc4c(cnn4-c4ccc(F)cc4)C[C@@]32C)c(Cl)c1 [Example 14]', 'Emax', 59.3),
  ('C[C@]12Cc3cnn(-c4ccc(F)cc4)c3C=C1CC[C@@H]2CN(CCc1ccccc1F)S(=O)(=O)Cc1ccccc1C(F)(F)F [Example 108]', 'Emax', 70.5);

I would be grateful if you could share the reported Emax for COCCN(C[C@H]1CCC2=Cc3c(cnn3-c3ccc(F)cc3)C[C@@]21C)S(C)(=O)=O [Example 96] .
85

Requested read-out: Emax. Entry: C[C@]12Cc3cnn(-c4ccc(F)cc4)c3C=C1CC[C@@H]2CN(CCC(N)C(F)(F)F)S(=O)(=O)CC(F)(F)F (some centres unmarked) [Example 147]
78.4

Please give the measured Emax for this compound: Cn1cc(S(=O)(=O)N(CC(O)C(F)F)C[C@H]2CCC3=Cc4c(cnn4-c4ccc(F)cc4)C[C@@]32C)c(C(F)(F)F)n1 (some centres unmarked) [Example 156]
19.5

Given the entry C[C@]12Cc3cnn(-c4ccc(F)cc4)c3C=C1CC[C@@H]2CN(CCc1ccccc1F)S(=O)(=O)Cc1cccc(C(F)(F)F)c1 [Example 88] , report its measured Emax.
57.7

Which Emax value is on record for CCCS(=O)(=O)N(CC(O)C(F)(F)F)C[C@H]1CCC2=Cc3c(cnn3-c3ccc(F)cc3)C[C@@]21C (some centres unmarked) [Example 148] ?
77.6

Data request, read-out Emax, for C[C@]12Cc3cnn(-c4ccc(F)cc4)c3C=C1CC[C@@H]2CN(CCc1ccccn1)S(=O)(=O)CC(F)(F)F [Example 128]
88.4

# lookup: Emax of C[C@]12Cc3cnn(-c4ccc(F)cc4)c3C=C1CC[C@@H]2CN(CC(OS(=O)(=O)CC(F)(F)F)c1ccccn1)S(=O)(=O)CC(F)(F)F (some centres unmarked) [Example 145]
93.5
